assay: Antiproliferative activity against HEK293T cells at 5 uM incubated for 48 hrs by MTT assay relative to control; type: toxicity, cell-based, HEK-293T; conditions: human
Provide the recorded inhibition at 48 h, 5 µM for the entries that follow.
The answer is to be given in %; state only the numeric part.

Field request: inhibition at 48 h, 5 µM | item: "O=C(c1ccccc1)c1nc(Nc2ccc(N3CCOCC3)cc2)c2cc(F)ccc2n1"
29.7

Now try "COc1ccc(N(C)c2nc(C(=O)c3cccc(OC)c3)nc3ccccc23)cc1" .
59.6

Now try "C=CC(=O)Nc1cccc(Nc2nc(C(=O)c3ccccc3)nc3ccc(F)cc23)c1" .
4.8

Now try COc1cccc2c1C(=O)c1c(O)c3c(c(O)c1C2=O)C[C@@](O)(C(=O)CO)C[C@@H]3O[C@H]1C[C@H](N)[C@H](O)[C@H](C)O1 [DOXORUBICIN] .
81.1

Origin of measurements: ChEMBL document CHEMBL5550093
